Test system: HCT-116
Protocol notes: Antiproliferative activity against doxorubicin resistant human HCT-116 cells measured after 72 hrs by MTT assay
Assay type: functional, cell-based
Protocol conditions: HCT-116, 72 h
Quantity kind: IC50 (µM)
Kindly answer with a numeric value in µM, unit omitted.

O=C1c2c[n+]([O-])c3ccccc3c2C(=O)c2c1c1ccccc1n2Cc1cn([C@@H]2C[C@H](O)[C@@H](CO)O2)nn1: 0.07

Note to self: IC50 recorded for `COc1cccc2c1C(=O)c1c(O)c3c(c(O)c1C2=O)C[C@@](O)(C(=O)CO)C[C@@H]3O[C@H]1C[C@H](N)[C@H](O)[C@H](C)O1` was 2.05

Note to self: IC50 recorded for `O=C1c2c[n+]([O-])c3ccccc3c2C(=O)c2[nH]c3ccccc3c21` was 0.81

Note to self: IC50 recorded for COc1cc([C@@H]2c3cc4c(cc3[C@@H](O[C@@H]3O[C@@H]5CO[C@@H](C)O[C@H]5[C@H](O)[C@H]3O)[C@H]3COC(=O)[C@H]23)OCO4)cc(OC)c1O [ETOPOSIDE] was 3.52

* * *

Protocol notes: Cytotoxicity against human HEK293T cells measured after 72 hrs by MTT assay
Type: toxicity, cell-based, HEK-293T
One threshold, 200 nM, splits the recorded IC50 at 72 h values: lower ones are 1 (yes), equal or higher ones are 0 (no).

CC(=O)OC[C@H]1O[C@H](n2cc(Cn3c4c(c5ccccc53)C(=O)c3c[n+]([O-])c5ccccc5c3C4=O)nn2)[C@H](OC(C)=O)[C@@H]1OC(C)=O: 0 (no)
CN(C)CCCCCn1c2c(c3ccccc31)C(=O)c1c[n+]([O-])c3ccccc3c1C2=O: 1 (yes)
O=C1c2c[n+]([O-])c3ccccc3c2C(=O)c2c1c1ccccc1n2Cc1cn(C[C@H](O)CO)nn1: 0 (no)
CN(C)CCCn1c2c(c3ccccc31)C(=O)c1c[n+]([O-])c3ccccc3c1C2=O: 1 (yes)

*Q* Is IC50 at 72 h strictly under 200 nM for the entry `CN1CCN(CCCCn2c3c(c4ccccc42)C(=O)c2c[n+]([O-])c4ccccc4c2C3=O)CC1` ?
*A* 1 (yes)

*Q* Is IC50 at 72 h strictly under 200 nM for the entry `CC(=O)OC[C@H]1O[C@@H](n2cc(Cn3c4c(c5ccccc53)C(=O)c3c[n+]([O-])c5ccccc5c3C4=O)nn2)[C@H](OC(C)=O)[C@@H]1OC(C)=O` ?
*A* 0 (no)

*Q* Is IC50 at 72 h strictly under 200 nM for the entry `CC(=O)OC[C@H]1O[C@@H](n2cc(Cn3c4c(c5ccccc53)C(=O)c3c[n+]([O-])c5ccccc5c3C4=O)nn2)C[C@@H]1OC(C)=O` ?
*A* 0 (no)

*Q* Is IC50 at 72 h strictly under 200 nM for the entry `CC(=O)OC[C@H]1O[C@H](n2cc(Cn3c4c(c5ccccc53)C(=O)c3c[n+]([O-])c5ccccc5c3C4=O)nn2)C[C@@H]1OC(C)=O` ?
*A* 1 (yes)

*Q* Is IC50 at 72 h strictly under 200 nM for the entry `CC1(C)O[C@@H](CO)[C@H](Cn2cc(Cn3c4c(c5ccccc53)C(=O)c3c[n+]([O-])c5ccccc5c3C4=O)nn2)O1` ?
*A* 1 (yes)

*Q* Is IC50 at 72 h strictly under 200 nM for the entry `CN1CCN(CCCn2c3c(c4ccccc42)C(=O)c2c[n+]([O-])c4ccccc4c2C3=O)CC1` ?
*A* 1 (yes)

*Q* Is IC50 at 72 h strictly under 200 nM for the entry `O=C1c2c[n+]([O-])c3ccccc3c2C(=O)c2c1c1ccccc1n2CCCCCN1CCOCC1` ?
*A* 1 (yes)
